# System: SF-295
# ASSAY_SUMMARY: Antiproliferative activity against human SF295 cells
# Format: functional
Reported GI50 values are given for each entry in this list.
EXPERIMENTAL_READOUT: GI50 (µM)

SMILES_DATA: COc1ccc(/C=C\c2cc(OC)c(OC)c(OC)c2)cc1O
RELATION_SYMBOL: =
ENDPOINT_VALUE: 0.0631

SMILES_DATA: COc1ccc(-n2cc(-c3cc(OC)c(OC)c(OC)c3)[nH]c2=S)cc1OC
RELATION_SYMBOL: >
ENDPOINT_VALUE: 100

SMILES_DATA: COc1ccc(-c2cn(-c3ccc(OC)c(OC)c3)c(=O)[nH]2)cc1
RELATION_SYMBOL: >
ENDPOINT_VALUE: 100

SMILES_DATA: COc1cc(-n2cc(-c3ccccc3)[nH]c2=O)cc(OC)c1OC
RELATION_SYMBOL: =
ENDPOINT_VALUE: 39.8

SMILES_DATA: COc1ccc(-n2cc(-c3cc(OC)c(OC)c(OC)c3)[nH]c2=O)cc1Cl
RELATION_SYMBOL: =
ENDPOINT_VALUE: 39.8

SMILES_DATA: O=c1[nH]c(-c2ccc(Cl)c(Cl)c2)cn1-c1ccc(Cl)cc1
RELATION_SYMBOL: =
ENDPOINT_VALUE: 25.1

SMILES_DATA: COc1cc(-n2cc(-c3ccc(Cl)cc3)[nH]c2=O)cc(OC)c1OC
RELATION_SYMBOL: =
ENDPOINT_VALUE: 31.6

SMILES_DATA: COc1ccc(-n2cc(-c3ccc(Cl)cc3)[nH]c2=S)cc1Cl
RELATION_SYMBOL: =
ENDPOINT_VALUE: 25.1

SMILES_DATA: COc1ccc(-n2cc(-c3cc(OC)c(OC)c(OC)c3)[nH]c2=S)cc1Cl
RELATION_SYMBOL: =
ENDPOINT_VALUE: 39.8

SMILES_DATA: COc1ccc(-n2cc(-c3ccc(OC)c(OC)c3)[nH]c2=S)cc1Cl
RELATION_SYMBOL: =
ENDPOINT_VALUE: 39.8

SMILES_DATA: COc1ccc(-c2cn(-c3ccc(Cl)cc3)c(=S)[nH]2)cc1OC
RELATION_SYMBOL: =
ENDPOINT_VALUE: 6.31

SMILES_DATA: COc1cc(-c2cn(-c3ccc(Cl)cc3)c(=O)[nH]2)cc(OC)c1OC
RELATION_SYMBOL: >
ENDPOINT_VALUE: 100

----------
# Test system: RPMI-8226
# ASSAY_SUMMARY: Antiproliferative activity against human RPMI8226 cells
# Type: functional
Reported GI50 values are given for each entry in this list.

SMILES_DATA: COc1ccc(-n2cc(-c3cc(OC)c(OC)c(OC)c3)[nH]c2=S)cc1Cl
TARGET_SYSTEM: RPMI-8226
GI50 / µM: 5.01
--
SMILES_DATA: COc1cc(-n2cc(-c3ccc(Cl)cc3)[nH]c2=O)cc(OC)c1OC
TARGET_SYSTEM: RPMI-8226
GI50 / µM: 12.6
--
SMILES_DATA: O=c1[nH]c(-c2ccc(Cl)c(Cl)c2)cn1-c1ccc(Cl)cc1
TARGET_SYSTEM: RPMI-8226
GI50 / µM: 63.1
